Here, compounds appear alongside IC50 reported for Coagulation factor VII (Homo sapiens) in the literature.

Consider the reported IC50 for these compounds:
N=C(N)c1ccc(CNC(=O)Cc2c(-c3cccc(N)c3)ccc(NCc3ccccc3)c2F)cc1 | 0.5 µM
N=C(N)NCCC[C@H](NC(=O)[C@H](Cc1cccc(F)c1)NC(=O)[C@@H](Cc1ccccc1)NS(=O)(=O)Cc1ccccc1)C(=O)c1nccs1 | 0.2 µM
CC(C)c1cc(CCN2CCc3cccc(C(=O)O)c32)cc(-c2ccc3c(c2)[C@H](N)CO3)c1 | 6.23 µM

Ask | Name the reported IC50 value associated with the compound CC[C@@H](C)[C@@H](NS(=O)(=O)Cc1ccc(Cl)cc1)C(=O)N1C[C@@](C)(C#N)C[C@H]1C(=O)NCc1ccc2c(N)nccc2c1
Reply | 0.285 µM

Ask | Cool, now CC[C@@H](C)[C@@H](NC1CCCCC1)C(=O)N1C[C@](O)(CC)C[C@H]1C(=O)NCc1ccc2c(N)nccc2c1
Reply | 0.646 µM

Ask | Cool, now CCCCOc1ccc(-c2ccc(C(=O)NCC(C)(C)C)cc2C(=O)O)c(C(=O)Nc2ccc3c(N)nccc3c2)n1
Reply | 0.357 µM

Ask | Cool, now C=CCOc1ccc(-c2ccc(C(=O)NCC(C)(C)C)cc2C(=O)O)c(C(=O)Nc2ccc3c(N)nccc3c2)n1
Reply | 0.034 µM

Ask | Cool, now N=C(N)NCCC[C@H](NC(=O)[C@H](Cc1ccc(I)cc1)NC(=O)[C@@H](Cc1ccccc1)NS(=O)(=O)Cc1ccccc1)C(=O)c1nccs1
Reply | 1.56 µM

Ask | Cool, now COc1ccc(-c2ccc(C(=O)NCC(C)(C)C)cc2C(=O)O)c(C(=O)Nc2ccc3nc(N)[nH]c3c2)n1
Reply | 0.164 µM

Ask | Cool, now N=C(N)c1ccc(S(=O)(=O)NCCn2c(-c3cccc(N)c3)c(Cl)nc(NC3CCC3)c2=O)cc1
Reply | 30 µM

Ask | Cool, now NCc1cccc(-c2cccc(COc3ccccc3CC(=O)O)c2)c1
Reply | 1.4 µM

Ask | Cool, now N=C(N)NCCC[C@H](NC(=O)[C@H](CC1CCCCC1)NC(=O)[C@@H](Cc1ccccc1)NS(=O)(=O)Cc1ccccc1)C(=O)c1nccs1
Reply | 3.3 µM

Ask | Cool, now CC[C@@H]1CC(C(=O)NCc2ccc(C(=N)N)cc2)N2C(=O)[C@@](N)(CC3=CCCCC3)C[C@H](OC)[C@H]12 (some centres not stated)
Reply | 109 µM

Ask | Cool, now N=c1[nH][nH]c(=O)c2cc(CNC(=O)Cn3c(-c4cccc(N)c4)c(Cl)nc(NC4CCC4)c3=O)ccc12
Reply | > 30 µM

Ask | Cool, now CC[C@@H](C)NC(=O)c1cc(N)cc(-c2cnc(NC(C)C)c(=O)n2CC(=O)NCc2ccc(C(=N)N)cc2C(=O)NCC(F)(F)F)c1
Reply | 0.012 µM

Ask | Cool, now COc1ccc(-c2ccc(C(=O)N[C@H](CO)C(C)(C)C)cc2C(=O)O)c(C(=O)Nc2ccc(C(=N)N)cc2)n1
Reply | 0.005 µM

Ask | Cool, now O=C(Cc1c(F)ccc(NS(=O)(=O)Cc2ccccc2)c1F)NCCCn1ccnc1
Reply | > 30 µM

Ask | Cool, now COc1ccc(-c2ccc(C(=O)NCC(C)(C)C)cc2C(=O)O)c(C(=O)Nc2cccc(C(N)=O)c2)n1
Reply | 0.265 µM

Ask | Cool, now N=C(N)c1ccc(CNC(=O)Cn2c(-c3cccc(N)c3)c(Cl)nc(NC3CCC3)c2=O)cc1O
Reply | 0.19 µM

Ask | Cool, now COc1ccc(NC(=O)c2nc3c(s2)CN(C)CC3)c(C(=O)Nc2ccc(Cl)cn2)c1
Reply | 12 µM

Ask | Cool, now CC(C)(C)C[C@H](NC(=O)[C@@H](Cc1ccccc1)NS(=O)(=O)Cc1ccccc1)C(=O)N[C@@H](CCCNC(=N)N)C(=O)c1nccs1
Reply | 0.7 µM

Ask | Cool, now CN(C)c1ccc(CNC(=O)c2cc(NS(=O)(=O)Cc3ccccc3)ccc2Sc2ccccc2)cc1
Reply | > 30 µM
